assay_procedure: Displacement of [3H]SCH-23390 from dopamine D1 like receptor in porcine striatal membranes after 30 mins by scintillation counting
Assay type: cell membranes, Sus scrofa, Striatum, Membrane
reported_property: Ki (µM)
Numbers only, in µM.

[
  {
    "molecule": "C[C@H]1C[C@H]2NCc3ccccc3[C@@H]2c2cc(O)c(O)cc21 (racemic)",
    "reported_property": "Ki",
    "observed": 0.92
  },
  {
    "molecule": "C[C@H]1Cc2cc(O)c(O)cc2[C@H]2c3ccccc3CN[C@@H]21 (racemic)",
    "reported_property": "Ki",
    "observed": 6.54
  }
]

Input line: I'd like to know its Ki. The molecule in question is C[C@@H]1C[C@H]2NCc3ccccc3[C@@H]2c2cc(O)c(O)cc21 (racemic)
Output line: 0.27

Where these numbers come from: ChEMBL document CHEMBL1811856
